Would you mind telling me the reported Activity of each entry?
# target_under_test: ATP-dependent translocase ABCB1 (Homo sapiens)
# Sequence (P08183 whole entry): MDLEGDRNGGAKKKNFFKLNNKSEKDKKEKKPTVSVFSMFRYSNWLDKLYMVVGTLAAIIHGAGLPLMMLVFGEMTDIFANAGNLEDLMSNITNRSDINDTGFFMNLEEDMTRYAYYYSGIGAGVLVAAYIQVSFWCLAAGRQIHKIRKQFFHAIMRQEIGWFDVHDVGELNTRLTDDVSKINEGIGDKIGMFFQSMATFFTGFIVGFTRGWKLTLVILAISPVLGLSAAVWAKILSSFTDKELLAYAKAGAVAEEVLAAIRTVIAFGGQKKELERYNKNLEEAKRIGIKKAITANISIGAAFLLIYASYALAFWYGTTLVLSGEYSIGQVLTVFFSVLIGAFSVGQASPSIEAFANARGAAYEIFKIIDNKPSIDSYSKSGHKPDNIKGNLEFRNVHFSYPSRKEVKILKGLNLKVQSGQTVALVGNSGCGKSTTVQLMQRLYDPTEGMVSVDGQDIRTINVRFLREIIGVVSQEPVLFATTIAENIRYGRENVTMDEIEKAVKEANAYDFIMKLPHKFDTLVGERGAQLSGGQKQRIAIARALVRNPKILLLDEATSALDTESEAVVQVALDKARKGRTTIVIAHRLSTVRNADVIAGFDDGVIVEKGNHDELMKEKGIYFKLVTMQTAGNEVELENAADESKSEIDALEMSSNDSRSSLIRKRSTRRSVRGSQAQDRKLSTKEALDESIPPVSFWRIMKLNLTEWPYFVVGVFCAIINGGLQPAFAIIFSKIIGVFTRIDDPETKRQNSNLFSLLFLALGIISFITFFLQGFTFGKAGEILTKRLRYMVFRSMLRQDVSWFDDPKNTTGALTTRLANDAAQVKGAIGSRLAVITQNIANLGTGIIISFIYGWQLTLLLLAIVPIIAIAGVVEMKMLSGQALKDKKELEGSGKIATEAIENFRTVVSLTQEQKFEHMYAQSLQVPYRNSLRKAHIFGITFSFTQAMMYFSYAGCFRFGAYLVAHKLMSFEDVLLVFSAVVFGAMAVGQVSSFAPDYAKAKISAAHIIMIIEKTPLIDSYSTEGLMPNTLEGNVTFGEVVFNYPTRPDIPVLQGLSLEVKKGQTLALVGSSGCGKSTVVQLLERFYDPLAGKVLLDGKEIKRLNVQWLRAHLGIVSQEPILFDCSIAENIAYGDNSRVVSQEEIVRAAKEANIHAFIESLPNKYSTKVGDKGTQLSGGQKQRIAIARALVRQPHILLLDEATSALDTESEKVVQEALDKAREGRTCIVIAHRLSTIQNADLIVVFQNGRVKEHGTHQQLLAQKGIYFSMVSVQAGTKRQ
# assay_notes: Inhibition of human multidrug resistant gene Pgp expressed in MDCK2 cells assessed as calcein-AM accumulation at 10 uM after 40 mins
# Assay type: cell-based
# Design: scale not given: the % may be the effect or the level left
# assay_conditions: mdck-ii
Quick note: give the figure in %, leave out the unit.

Prompt: # query: Activity of entry `COc1cc(OC)c(C2CCN(C)CC2)c(O)c1C(=O)/C=C/c1ccc(N2CCN(C)CC2)cc1`
Completion: 118

Prompt: `COc1ccc(/C=C/C(=O)c2ccc(OC)c(OC)c2OC)c(OC)c1` ?
Completion: 174

Prompt: Do the same for `COc1ccc(/C=C/C(=O)c2ccc(N3CCNCC3)cc2)c(OC)c1` please
Completion: 216

Prompt: Moving on to `O=C(/C=C/c1ccc(Cl)cc1)c1ccc(N2CCCCC2)cc1`
Completion: 103

Prompt: What about `CCN1CCC(c2cc(C(=O)/C=C/c3ccc(Cl)cc3)c(OC)cc2OC)CC1` ?
Completion: 247

Prompt: Try the compound `COc1cc(OC)c(C2CCN(C)CC2)cc1C(=O)/C=C/c1ccccn1`
Completion: 164

Prompt: How about this compound: `COc1ccc(C(=O)/C=C/c2ccc(C(F)(F)F)cc2)c(OC)c1`
Completion: 103

Prompt: Proceed to `COc1cc(OC)c(N2CCN(C)CC2)cc1C(=O)/C=C/c1ccc(N2CCN(C)CC2)cc1`
Completion: 107

Prompt: Queued: `COc1ccc(/C=C/C(=O)c2ccc(N3CCCCC3)cc2)c(OC)c1`
Completion: 178

Prompt: What about this compound? `COc1ccc(C(=O)/C=C/c2ccc(N3CCN(C)CC3)cc2)c(OC)c1`
Completion: 159

Prompt: Repeat for the following compound: `COc1cc(OC)c(C2CCN(C)CC2)cc1C(=O)/C=C/c1ccc(N2CCN(C)CC2)cc1`
Completion: 102

Prompt: Continue with `O=C(/C=C/c1ccccc1)c1ccc(N2CCCCC2)cc1`
Completion: 112

Prompt: Please do the same for `O=C(/C=C/c1ccccc1Cl)c1ccc(N2CCNCC2)cc1` as well.
Completion: 139

Prompt: Let us now turn to `COc1cc(OC)c(C2CCN(C)CC2)cc1C(=O)/C=C/c1ccncc1`
Completion: 117

----------
# target_under_test: P-gp (ABCB1), wild type (Homo sapiens)
# Sequence (P08183 whole entry): as above
# assay_notes: Inhibition of human wild type Pgp expressed in MDCK2 cells assessed as calcein-AM accumulation at 50 uM after 40 mins
# Assay type: cell-based, MDCK-II
# assay_conditions: MDCK2 cells expressing human wild type Pgp, probe calcein-AM
reported_endpoint: inhibition at 40 min, 50 µM

Prompt: I have this compound here, `CCN1CCC(c2cc(C(=O)/C=C/c3ccccc3Cl)c(OC)cc2OC)CC1` , and I need its recorded inhibition at 40 min, 50 µM.
Completion: > 100%

----------
# target_under_test: UniProtKB P08183
# assay_notes: Inhibition of human multidrug resistant gene Pgp expressed in MDCK2 cells assessed as calcein-AM accumulation at 10 uM after 40 mins
# Type: cell-based
# Set-up: scale not given: the % may be the effect or the level left
# assay_conditions: mdck-ii
Provide the recorded Activity for the entries that follow.
Provide only the numeric value, understood in %.

Prompt: Under UniProtKB P08183: Activity value of `CCN1CCC(c2cc(C(=O)/C=C/c3ccncc3)c(OC)cc2OC)CC1` ?
Completion: 151

Prompt: `CCN1CCC(c2cc(C(=O)/C=C/c3ccc(N4CCN(C)CC4)cc3)c(OC)cc2OC)CC1` , same question.
Completion: 120

Prompt: Repeat for the following molecule: `O=C(/C=C/c1ccc(Cl)cc1)c1ccc(N2CCNCC2)cc1`
Completion: 135

Prompt: # iterate: `COc1ccc(/C=C/C(=O)c2ccc(OC)cc2OC)c(OC)c1`
Completion: 172

Prompt: Check `COc1ccc(C(=O)/C=C/c2ccc(Cl)cc2)c(OC)c1` too.
Completion: 101

Prompt: // next record `CCN1CCC(c2cc(C(=O)/C=C/c3ccccc3)c(OC)cc2OC)CC1`
Completion: 256

Prompt: Another: `COc1ccc(C2CCN(C)CC2)cc1C(=O)/C=C/c1ccccc1`
Completion: 178

Prompt: Next record, please: `COc1cc(OC)c(N2CCN(C)CC2)cc1C(=O)/C=C/c1ccccc1`
Completion: 176

Prompt: What about `CCN1CCC(c2cc(C(=O)/C=C/c3ccccc3Cl)c(OC)cc2OC)CC1` ?
Completion: 280

Prompt: Ok, now `COc1cc(OC)c(C2CCN(C)CC2)cc1C(=O)/C=C/c1cccnc1`
Completion: 170

Prompt: Proceed to `COc1cc(OC)c(N2CCN(C)CC2)cc1C(=O)/C=C/c1ccccc1Cl`
Completion: 222
